Field: refractive index. Provide a value for each of the molecules that follow.
# Experimental details: refractive index (Na D-line) (dimensionless)
# Measurement conditions: 298.15 K; 100 kPa; Liquid; Standard Abbe refractometry
Numbers only.

State the recorded refractive index for this entry: "CC(C)O"
1.37503

Input "CCO"
1.35947

Also "CO" ?
1.32655

New cases:
What does the data say about its refractive index? Entry: "O"
1.33251
